testProtocol: Cytotoxicity against human A549 cells assessed as growth inhibition at 10 uM after 48 hrs by CellTiter-Glo assay relative to control; values are per cent of control
settings: A549 cells
property: cell growth (% of control) at 48 h, 10 µM (%)
Quick reminder: number only, in %, skip the unit.

Ask | Recorded cell growth (% of control) at 48 h, 10 µM for `NC(=S)N/N=C/c1ccc2ncccc2c1` , please?
Reply | 145

Ask | Also need `N/C(S)=N/N=C/c1ccc(Cl)c(Cl)c1` , thanks.
Reply | 100

Ask | Also need `C/C(=N\NC(N)=S)c1ccc(N)cc1` , thanks.
Reply | 141

Ask | Also need `NC(=S)N/N=C/c1csc2ccccc12` , thanks.
Reply | 101

Ask | Also need `CSc1ccc(/C=N/NC(N)=S)cc1` , thanks.
Reply | 136

Ask | Also need `NC(=S)N/N=C/c1ccccc1O` , thanks.
Reply | 117

Ask | Also need `COc1cc(/C=N/NC(N)=S)cc(OC)c1OC` , thanks.
Reply | 140

----------
System: Trypanosoma brucei
testProtocol: Antitrypanosomal activity against Trypanosoma brucei Lister 427 bloodstream form at 10 uM after 72 hrs by resazurin dye-based assay relative to control
Type: functional
property: Activity (%)
Quick reminder: number only, in %, skip the unit.

Ask | Recorded Activity for `CN(C)c1ccc(/C=N/N=C(/N)S)c2ccccc12` , please?
Reply | 26.17

Ask | Also need `NC(=S)N/N=C/c1csc2ccccc12` , thanks.
Reply | 21

Ask | Also need `COc1ccc(-c2cccc(/C=N/NC(N)=S)c2)cc1OC` , thanks.
Reply | 98.83

Ask | Also need `C/C(=N\NC(N)=S)c1ccc(O)cc1` , thanks.
Reply | 14.83

Ask | Also need `CSc1ccc(/C=N/NC(N)=S)cc1` , thanks.
Reply | 15.33

Ask | Also need `NC(=S)N/N=C/c1ccco1` , thanks.
Reply | 3.33

Ask | Also need `COc1cc(/C=N/NC(N)=S)cc(OC)c1OC` , thanks.
Reply | 2.67

----------
testedTarget: UniProtKB P10635
Sequence (P10635 whole entry): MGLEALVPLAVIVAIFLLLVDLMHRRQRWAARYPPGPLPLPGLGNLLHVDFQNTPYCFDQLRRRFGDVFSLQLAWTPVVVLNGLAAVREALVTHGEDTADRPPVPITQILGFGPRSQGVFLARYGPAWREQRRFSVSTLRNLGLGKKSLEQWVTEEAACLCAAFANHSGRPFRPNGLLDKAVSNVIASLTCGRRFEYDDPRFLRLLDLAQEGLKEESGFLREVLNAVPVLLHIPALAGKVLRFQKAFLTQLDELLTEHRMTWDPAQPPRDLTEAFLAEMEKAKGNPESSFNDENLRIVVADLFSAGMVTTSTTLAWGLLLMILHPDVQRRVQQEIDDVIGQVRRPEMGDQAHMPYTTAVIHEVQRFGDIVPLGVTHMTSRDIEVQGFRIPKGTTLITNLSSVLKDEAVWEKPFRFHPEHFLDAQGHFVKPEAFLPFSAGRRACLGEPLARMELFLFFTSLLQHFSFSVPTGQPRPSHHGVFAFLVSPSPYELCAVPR
testProtocol: Inhibition of human microsomal CYP2D6 expressed in baculovirus infected BTI-TN-5B1-4 cells at 10 uM incubated for 30 mins by luciferase assay relative to control
Format: ADME
Give inhibition at 0.5 h, 10 µM for every item shown.
Quick reminder: number only, in %, skip the unit.

Ask | Recorded inhibition at 0.5 h, 10 µM for `NC(=S)N/N=C/c1ccc2ncccc2c1` , please?
Reply | 2.28

Ask | Also need `COc1ccc(/C=N/NC(N)=S)cc1OC` , thanks.
Reply | -20.5

Ask | Also need `C/C(=N\NC(N)=S)c1ccc(O)cc1` , thanks.
Reply | -24.5

Ask | Also need `COc1cc(/C=N/NC(N)=S)cc(OC)c1OC` , thanks.
Reply | -21

Ask | Also need `N/C(S)=N/N=C/c1ccc(Cl)c(Cl)c1` , thanks.
Reply | 27.3

Ask | Also need `CSc1ccc(/C=N/NC(N)=S)cc1` , thanks.
Reply | 35.9

Ask | Also need `NC(=S)N/N=C/c1ccc(OCc2ccc(Cl)c(Cl)c2)cc1` , thanks.
Reply | 39.3

Ask | Also need `COc1ccc(-c2cccc(/C=N/NC(N)=S)c2)cc1OC` , thanks.
Reply | 29.2

Ask | Also need `COc1cccc(OC)c1/C=N/NC(N)=S` , thanks.
Reply | 0.08

Ask | Also need `NC(=S)N/N=C/c1ccc(-c2ccccc2)cc1` , thanks.
Reply | 26.8

Ask | Also need `NC(=S)N/N=C/c1ccc(O)c(O)c1` , thanks.
Reply | -9.48

Ask | Also need `NC(=S)N/N=C/c1ccc(O)cc1` , thanks.
Reply | -3.36

Ask | Also need `NC(=S)N/N=C/c1ccccc1O` , thanks.
Reply | -18.9

Ask | Also need `NC(=S)N/N=C/C=C/c1ccccc1` , thanks.
Reply | 3.17

Ask | Also need `COc1cc(/C=N/NC(N)=S)ccc1O` , thanks.
Reply | 22.2

Ask | Also need `C/C(=N\NC(N)=S)c1ccc(N)cc1` , thanks.
Reply | -13.1

Ask | Also need NC(=S)N/N=C/C(O)C(O)C(O)CO (stereo not drawn) , thanks.
Reply | -54.5

Ask | Also need `NC(=S)N/N=C/c1csc2ccccc12` , thanks.
Reply | 22.1

Ask | Also need `Cc1ccsc1/C=N/NC(N)=S` , thanks.
Reply | 8.57

Ask | Also need `NC(=S)N/N=C/c1ccc(N)cc1` , thanks.
Reply | -6.6

Ask | Also need `NC(=S)N/N=C/c1cccc(-c2ccc3c(c2)OCO3)c1` , thanks.
Reply | 76.9

Ask | Also need `NC(=S)N/N=C/c1ccco1` , thanks.
Reply | -43.1

Ask | Also need `N/C(S)=N/N=C/c1ccc([N+](=O)[O-])cc1` , thanks.
Reply | -16.9

Ask | Also need `CN(C)c1ccc(/C=N/N=C(/N)S)c2ccccc12` , thanks.
Reply | 57.9

Ask | Also need `NC(=S)N/N=C/c1ccccc1[N+](=O)[O-]` , thanks.
Reply | -2.93

Ask | Also need `COc1ccccc1/C=N/NC(N)=S` , thanks.
Reply | -8.91

Ask | Also need `NC(=S)N/N=C/c1cccc(-c2ccccc2)c1` , thanks.
Reply | 20.6

Ask | Also need `N/C(S)=N/N=C/c1cccc(Br)c1` , thanks.
Reply | -14.4
